Origin of values: ChEMBL document CHEMBL5325392

# target: UniProt:Q96RI1
# Sequence (Q96RI1 whole entry): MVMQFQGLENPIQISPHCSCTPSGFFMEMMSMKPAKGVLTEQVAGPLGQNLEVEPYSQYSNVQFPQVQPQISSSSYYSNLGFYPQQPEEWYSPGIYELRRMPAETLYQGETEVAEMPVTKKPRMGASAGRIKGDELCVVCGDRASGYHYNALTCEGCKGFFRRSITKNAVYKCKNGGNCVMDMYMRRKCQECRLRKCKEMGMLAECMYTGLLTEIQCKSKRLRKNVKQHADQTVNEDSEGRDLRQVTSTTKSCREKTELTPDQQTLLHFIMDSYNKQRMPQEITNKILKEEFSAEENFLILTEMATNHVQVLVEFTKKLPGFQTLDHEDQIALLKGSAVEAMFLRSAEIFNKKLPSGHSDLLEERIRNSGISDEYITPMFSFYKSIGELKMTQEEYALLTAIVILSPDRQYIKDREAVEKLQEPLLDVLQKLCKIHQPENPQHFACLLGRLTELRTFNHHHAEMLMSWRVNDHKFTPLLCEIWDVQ
# test.summary: Agonist activity at glutathione transferase-tagged human FXR ligand binding domain assessed as biotinylated Src1 peptide recruitment incubated for 30 mins by AlphaScreen assay
Listed here: items and their measured EC50.

{"molecule": "CC[C@H]1[C@@H](O)[C@@H]2[C@H](CC[C@]3(C)[C@@H]([C@H](C)CCOS(=O)(=O)O)CC[C@@H]23)[C@@]2(C)CCC(=O)C[C@@H]12", "EC50": "0.08 µM"}
{"molecule": "CC[C@H]1[C@@H](O)[C@@H]2[C@H](CC[C@]3(C)[C@@H]([C@H](C)CCO)CC[C@@H]23)[C@@]2(C)CC[C@@H](O)C[C@@H]12", "EC50": "1.2 µM"}

Lab entry: UniProt:Q96RI1 assay, molecule `CC[C@H]1[C@@H](O)[C@@H]2[C@H](CC[C@]3(C)[C@@H]([C@H](C)CCOS(=O)(=O)O)CC[C@@H]23)[C@@]2(C)CC[C@@H](OS(=O)(=O)O)C[C@@H]12` , EC50 = > 100 µM

Lab entry: UniProt:Q96RI1 assay, molecule `CC[C@H]1[C@@H](O)[C@@H]2[C@H](CC[C@]3(C)[C@@H]([C@H](C)CCOS(=O)(=O)O)CC[C@@H]23)[C@@]2(C)CC[C@@H](O[C@@H]3O[C@H](CC(=O)O)[C@@H](O)[C@H](O)[C@H]3O)C[C@@H]12` , EC50 = 5 µM

====

# target: G-protein coupled bile acid receptor 1 (Homo sapiens, UniProt Q8TDU6)
# Sequence (Q8TDU6 whole entry): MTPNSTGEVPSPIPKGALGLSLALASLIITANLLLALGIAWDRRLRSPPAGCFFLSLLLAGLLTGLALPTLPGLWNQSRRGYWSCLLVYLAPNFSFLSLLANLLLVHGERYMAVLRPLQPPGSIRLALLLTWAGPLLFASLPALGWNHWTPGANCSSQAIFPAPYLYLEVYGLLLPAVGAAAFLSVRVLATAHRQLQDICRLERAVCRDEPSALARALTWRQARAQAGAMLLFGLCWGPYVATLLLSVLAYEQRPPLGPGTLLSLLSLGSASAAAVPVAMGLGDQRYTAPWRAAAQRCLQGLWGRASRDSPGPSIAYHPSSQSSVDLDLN
# test.summary: Agonist activity at TGR5 receptor in human NCI-H716 cells assessed as activation of intracellular cAMP production incubated for 1 hr by HTR-FRET assay
measurement.kind: EC50 (µM)
I only need the number, in µM, no unit after it.

{"molecule": "CC[C@H]1[C@@H](O)[C@@H]2[C@H](CC[C@]3(C)[C@@H]([C@H](C)CCO)CC[C@@H]23)[C@@]2(C)CC[C@@H](O)C[C@@H]12", "EC50, µM": 1.1}

Pending molecule:
EC50 reading for `CC[C@H]1[C@@H](O)[C@@H]2[C@H](CC[C@]3(C)[C@@H]([C@H](C)CCOS(=O)(=O)O)CC[C@@H]23)[C@@]2(C)CCC(=O)C[C@@H]12` : 5
